Data provenance is ChEMBL document CHEMBL1134525.

# Target Or Test System: GABA-A receptor; anion channel
# Assay Procedure: Inhibition of [3H]- flumazenil binding to benzodiazepine receptor in bovine brain membranes
Kindly supply the reported pKi values for the records listed here.
Units for pKi: none; it is -log10 of a concentration expressed in mol/L.

Request the reported pKi associated with CCOC(=O)CNC(=O)C(=O)c1c[nH]c2ccc([N+](=O)[O-])cc12 5.57

Request the reported pKi associated with C[C@H](NC(=O)C(=O)c1c[nH]c2ccc(Cl)cc12)c1ccccc1 7.00

Request the reported pKi associated with COc1ccc(C(C)NC(=O)C(=O)c2c[nH]c3ccccc23)cc1 (racemic) 5.93

Request the reported pKi associated with O=C(N[C@@H]1CCc2ccccc21)C(=O)c1c[nH]c2ccc(Cl)cc12 7.10

Request the reported pKi associated with Cc1ccc([C@@H](C)NC(=O)C(=O)c2c[nH]c3ccc(Cl)cc23)cc1 6.98

Request the reported pKi associated with N#CC(NC(=O)C(=O)c1c[nH]c2ccc([N+](=O)[O-])cc12)c1ccccc1 (racemic) 6.62

Request the reported pKi associated with C[C@@H](NC(=O)C(=O)c1c[nH]c2ccccc12)c1ccccc1 5.88

Request the reported pKi associated with COc1ccc(C(C)NC(=O)C(=O)c2c[nH]c3ccc([N+](=O)[O-])cc23)cc1OC (racemic) 7.26

Request the reported pKi associated with C[C@@H](NC(=O)C(=O)c1c[nH]c2ccc(Cl)cc12)c1ccc([N+](=O)[O-])cc1 6.16

Request the reported pKi associated with COc1ccc(C(C)NC(=O)C(=O)c2c[nH]c3ccc(Cl)cc23)cc1OC (racemic) 6.82

Request the reported pKi associated with O=C(N[C@@H]1CCc2ccccc21)C(=O)c1c[nH]c2ccccc12 6.17

Request the reported pKi associated with O=C(C(=O)N1Cc2ccccc2C1)c1c[nH]c2ccccc12 6.91

Request the reported pKi associated with COc1ccc(C(C)NC(=O)C(=O)c2c[nH]c3ccc(Cl)cc23)cc1 (racemic) 6.99

Request the reported pKi associated with Cc1ccc([C@@H](C)NC(=O)C(=O)c2c[nH]c3ccccc23)cc1 5.94

Request the reported pKi associated with O=C(N[C@@H]1CCc2ccccc21)C(=O)c1c[nH]c2ccc([N+](=O)[O-])cc12 7.55

Request the reported pKi associated with O=C(NCc1ccc([N+](=O)[O-])cc1)C(=O)c1c[nH]c2ccc([N+](=O)[O-])cc12 6.21

Request the reported pKi associated with C[C@@H](NC(=O)C(=O)c1c[nH]c2ccc([N+](=O)[O-])cc12)c1ccccc1 7.77

---

Kindly supply the reported Ki values for the records listed here.
# Target Or Test System: GABA A receptor alpha-3/beta-2/gamma-2 (Rattus norvegicus, UniProt P18508+P20236+P63138)
# Sequence (P18508 whole entry): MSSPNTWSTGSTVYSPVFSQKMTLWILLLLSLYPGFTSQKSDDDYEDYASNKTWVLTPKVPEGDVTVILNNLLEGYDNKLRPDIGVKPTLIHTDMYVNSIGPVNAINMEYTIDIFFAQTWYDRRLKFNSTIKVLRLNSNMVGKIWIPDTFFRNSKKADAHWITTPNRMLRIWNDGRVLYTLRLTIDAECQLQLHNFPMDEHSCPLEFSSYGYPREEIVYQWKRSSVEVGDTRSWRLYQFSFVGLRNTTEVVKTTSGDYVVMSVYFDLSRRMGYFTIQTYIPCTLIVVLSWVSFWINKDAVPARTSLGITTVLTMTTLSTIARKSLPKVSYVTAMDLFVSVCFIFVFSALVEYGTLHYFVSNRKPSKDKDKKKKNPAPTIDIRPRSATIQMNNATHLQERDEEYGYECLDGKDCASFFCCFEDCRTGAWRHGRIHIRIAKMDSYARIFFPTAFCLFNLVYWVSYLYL
# Sequence (P20236 whole entry): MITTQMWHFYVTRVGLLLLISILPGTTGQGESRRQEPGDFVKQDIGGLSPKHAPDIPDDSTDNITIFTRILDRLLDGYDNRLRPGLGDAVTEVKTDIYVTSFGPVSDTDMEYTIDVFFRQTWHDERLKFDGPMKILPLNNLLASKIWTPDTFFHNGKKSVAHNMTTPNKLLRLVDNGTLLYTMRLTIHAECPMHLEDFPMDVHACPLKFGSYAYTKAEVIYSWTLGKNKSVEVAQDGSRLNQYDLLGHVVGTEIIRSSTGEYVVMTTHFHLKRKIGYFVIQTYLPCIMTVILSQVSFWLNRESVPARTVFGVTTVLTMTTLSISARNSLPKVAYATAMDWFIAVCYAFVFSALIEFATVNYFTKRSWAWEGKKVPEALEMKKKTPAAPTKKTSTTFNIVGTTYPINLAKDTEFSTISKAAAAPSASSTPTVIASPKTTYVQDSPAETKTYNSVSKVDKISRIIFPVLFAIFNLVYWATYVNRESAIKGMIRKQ
# Sequence (P63138 whole entry): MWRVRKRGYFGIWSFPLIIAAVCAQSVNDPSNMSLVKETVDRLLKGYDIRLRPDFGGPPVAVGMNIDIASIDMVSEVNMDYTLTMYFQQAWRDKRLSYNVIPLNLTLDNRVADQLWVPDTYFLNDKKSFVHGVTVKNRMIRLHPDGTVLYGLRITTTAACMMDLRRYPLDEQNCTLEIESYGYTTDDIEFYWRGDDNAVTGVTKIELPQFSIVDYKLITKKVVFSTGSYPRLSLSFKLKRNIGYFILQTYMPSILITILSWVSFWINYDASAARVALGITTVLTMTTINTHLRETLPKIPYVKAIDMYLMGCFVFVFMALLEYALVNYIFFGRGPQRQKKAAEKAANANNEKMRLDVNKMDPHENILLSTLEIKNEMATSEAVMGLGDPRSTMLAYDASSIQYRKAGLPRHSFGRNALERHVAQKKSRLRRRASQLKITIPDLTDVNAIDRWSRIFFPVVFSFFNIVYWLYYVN
# Assay Procedure: Inhibition of [3H]flumazenil binding to rat alpha-3-beta-2-gamma-2 GABA-A receptor subunits expressed in HEK293 cells
The answer is to be given in nM; state only the numeric part.

Request the reported Ki associated with O=C(N[C@@H]1CCc2ccccc21)C(=O)c1c[nH]c2ccc([N+](=O)[O-])cc12 1960

Request the reported Ki associated with O=C(NCc1ccc([N+](=O)[O-])cc1)C(=O)c1c[nH]c2ccccc12 1600

Request the reported Ki associated with O=C(C(=O)N1Cc2ccccc2C1)c1c[nH]c2ccccc12 3200

Request the reported Ki associated with C[C@@H](NC(=O)C(=O)c1c[nH]c2ccc([N+](=O)[O-])cc12)c1ccccc1 283

Request the reported Ki associated with COc1ccc(CNC(=O)C(=O)c2c[nH]c3ccc([N+](=O)[O-])cc23)cc1 137

Request the reported Ki associated with O=C(NNc1ccc([N+](=O)[O-])cc1)C(=O)c1c[nH]c2ccccc12 40
